Here's a batch of molecules along with measured AC50 for Adenosine receptor A2a (Homo sapiens, UniProt P29274).

Illustrative cases are given below, each with its answer.
# molecule, assayResult
measured = [
    ("Nc1ncn([C@H]2C[C@H](O)[C@@H](CO)O2)c(=O)n1 [DECITABINE]", "> 30 µM"),
    ("CC(C)Cc1ccc(C(C)C(=O)O)cc1 (stereo not given) [IBUPROFEN]", "> 30 µM"),
    ("CN1C(C(=O)Nc2ccccn2)=C(O)c2ccccc2S1(=O)=O [PIROXICAM]", "> 10 µM"),
    ("CC(C)COCC(CN(Cc1ccccc1)c1ccccc1)N1CCCC1 (stereo not given) [BEPRIDIL]", "> 30 µM"),
    ("CCN(CC)CCNC(=O)c1c(C)[nH]c(/C=C2\\C(=O)Nc3ccc(F)cc32)c1C [SUNITINIB]", "5.3 µM"),
]

Input: Query (molecule): C[C@H]1c2cccc(O)c2C(=O)C2=C(O)[C@]3(O)C(=O)C(C(N)=O)=C(O)[C@@H](N(C)C)[C@@H]3[C@@H](O)[C@@H]21 [DOXYCYCLINE] ; field requested: AC50
Output: > 30 µM

Input: How about this molecule: CN(C)CCCNc1c2ccccc2nc2cccc([N+](=O)[O-])c12 [NITRACRINE]
Output: 17 µM

Input: How about this molecule: CC1OC2(CS1)CN1CCC2CC1 (stereo not given) [CEVIMELINE]
Output: > 10 µM

Input: How about this molecule: CN(C)CC[C@@H](c1ccc(Cl)cc1)c1ccccn1 [DEXCHLORPHENIRAMINE]
Output: > 30 µM

Input: How about this molecule: CCN(CC)CCN1C(=O)CN=C(c2ccccc2F)c2cc(Cl)ccc21 [FLURAZEPAM]
Output: > 30 µM

Data origin, for the record: ChEMBL document CHEMBL5291721
